# tested system: LNX1_2, Q8TBB1
# Sequence (Q8TBB1 371-470): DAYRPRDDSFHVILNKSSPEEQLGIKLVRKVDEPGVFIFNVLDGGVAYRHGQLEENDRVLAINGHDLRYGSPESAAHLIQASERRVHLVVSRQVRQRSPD
# assay overview: holdup assay
# Design: key: below the threshold = too weak to quantify, mostly under pKd 3.1 to 4
# condition description: plain residues with an end cap or a label only (N-terminal biotin on a linker: ado-ado)
quantity name: pKd

Record excerpt, results attached:
QKAPTKEFYA [SDC2, P34741]    3.5
GIKKITSTAL [RPS6KA3, P51812]    below the threshold
TISFTQTSQF [SLC1A1, P43005]    below the threshold
DFLSTFHIRI [CIB2, O75838]    below the threshold
LAHVKHKEQI [AQP3, Q92482]    below the threshold

We next turn to a different binder, shown below.
Give me measured pKd, please, for this binder: DGVNEKVSCV [HTR2A, P28223] below the threshold
